- System: H-2 D^b (Mus musculus)
- Sequence (P01887 21-119): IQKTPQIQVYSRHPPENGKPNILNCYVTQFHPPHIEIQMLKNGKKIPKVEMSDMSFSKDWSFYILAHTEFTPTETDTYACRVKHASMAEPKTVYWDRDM
- Sequence (P01899 25-362): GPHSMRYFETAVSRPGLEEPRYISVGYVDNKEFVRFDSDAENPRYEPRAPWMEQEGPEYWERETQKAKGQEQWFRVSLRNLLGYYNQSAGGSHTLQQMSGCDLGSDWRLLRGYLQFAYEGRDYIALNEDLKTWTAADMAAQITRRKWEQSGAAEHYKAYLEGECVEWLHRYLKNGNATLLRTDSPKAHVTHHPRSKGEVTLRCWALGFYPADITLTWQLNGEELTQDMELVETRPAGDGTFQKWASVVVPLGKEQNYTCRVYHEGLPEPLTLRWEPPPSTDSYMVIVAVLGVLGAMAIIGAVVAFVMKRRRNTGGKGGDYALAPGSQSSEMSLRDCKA
- Format: binding
Recorded Normalized average relative binding affinity (ARB), H-2 Db, one value per entry.
Observed property: Normalized average relative binding affinity (ARB), H-2 Db

# Sequence string, Obs value
measured = [
    ("CXXXXXXXX [3064.0002]", 0.16),
    ("XTXXXXXXX [3064.0037]", 0.22),
    ("XQXXXXXXX [3064.0034]", 1.0),
    ("MXXXXXXXX [3064.0011]", 0.18),
    ("XXSXXXXXX [3064.0056]", 0.084),
    ("XYXXXXXXX [3064.0040]", 0.071),
    ("RXXXXXXXX [3064.0015]", 0.12),
    ("XXEXXXXXX [3064.0044]", 0.032),
    ("LXXXXXXXX [3064.0010]", 0.20),
    ("XXNXXXXXX [3064.0052]", 0.25),
    ("EXXXXXXXX [3064.0004]", 0.030),
    ("FXXXXXXXX [3064.0005]", 1.0),
    ("XDXXXXXXX [3064.0023]", 0.036),
    ("XXVXXXXXX [3064.0058]", 0.17),
    ("XSXXXXXXX [3064.0036]", 0.80),
    ("XWXXXXXXX [3064.0039]", 0.10),
    ("XXQXXXXXX [3064.0054]", 0.098),
    ("XXMXXXXXX [3064.0051]", 0.31),
    ("XAXXXXXXX [3064.0021]", 0.64),
    ("XFXXXXXXX [3064.0025]", 0.086),
    ("XMXXXXXXX [3064.0031]", 0.73),
    ("VXXXXXXXX [3064.0018]", 0.094),
    ("XEXXXXXXX [3064.0024]", 0.036),
    ("XXCXXXXXX [3064.0042]", 0.098),
    ("KXXXXXXXX [3064.0009]", 0.14),
    ("IXXXXXXXX [3064.0008]", 0.13),
    ("AXXXXXXXX [3064.0001]", 0.14),
    ("DXXXXXXXX [3064.0003]", 0.033),
    ("WXXXXXXXX [3064.0019]", 0.16),
    ("XXRXXXXXX [3064.0055]", 0.023),
    ("XLXXXXXXX [3064.0030]", 0.18),
    ("XXAXXXXXX [3064.0041]", 0.022),
    ("XXWXXXXXX [3064.0059]", 0.18),
]

---

- System: HLA B*1503 (Homo sapiens, UniProt P01889, A329T/A93T/A95T/C349S/D201E/D98Y/E187L/E204Q/K202T/N87E/Q94N/R155S/R180L/S121R/S35A/V306I/V36M/Y140S/Y91S)
- Test protocol: biochemical
Where a SMILES comes first, the peptide text is derived from it.
Recorded IC50, one value per entry.
Observed property: IC50 (nM)

# Compound, Observed property, Obs value
records = [
    ("CC(C)C[C@H](NC(=O)[C@H](CC(C)C)NC(=O)[C@@H](N)CCCCN)C(=O)N[C@@H](CO)C(=O)N[C@@H](Cc1c[nH]cn1)C(=O)N[C@@H](Cc1ccccc1)C(=O)N[C@@H](Cc1ccc(O)cc1)C(=O)N1CCC[C@H]1C(=O)N[C@@H](C)C(=O)O [3102.0665] (H-KLLSHFYPA-OH)", "IC50", 5.4),
    ("CC(C)C[C@H](NC(=O)[C@H](CO)NC(=O)[C@H](CS)NC(=O)[C@@H](NC(=O)[C@H](Cc1ccccc1)NC(=O)[C@H](CCC(N)=O)NC(=O)[C@@H](N)CO)[C@@H](C)O)C(=O)N[C@@H](C)C(=O)N[C@H](C(=O)O)C(C)C [3102.1117] (H-SQFTCSLAV-OH)", "IC50", 1.5),
    ("CC(C)[C@H](N)C(=O)N[C@@H](CCCCN)C(=O)N[C@H](C(=O)N[C@@H](CCCCN)C(=O)N[C@@H](CCC(=O)O)C(=O)N[C@@H](CCC(=O)O)C(=O)N[C@@H](CC(N)=O)C(=O)N[C@H](C(=O)N[C@@H](Cc1ccccc1)C(=O)O)[C@@H](C)O)C(C)C [3102.1122] (H-VKVKEENTF-OH)", "IC50", 0.42),
    ("CSCC[C@H](NC(=O)[C@@H](N)CO)C(=O)N[C@@H](CCCCN)C(=O)N[C@H](C(=O)N[C@H](C(=O)N[C@@H](Cc1ccccc1)C(=O)N[C@@H](CCC(N)=O)C(=O)N[C@H](C(=O)N[C@@H](Cc1ccccc1)C(=O)O)C(C)C)C(C)C)[C@@H](C)O [3102.1083] (H-SMKTVFQVF-OH)", "IC50", 3.8),
    ("CC[C@H](C)[C@H](NC(=O)[C@H](CC(N)=O)NC(=O)[C@@H](NC(=O)[C@H](CCCCN)NC(=O)[C@@H](N)Cc1ccccc1)[C@@H](C)CC)C(=O)N[C@@H](Cc1ccccc1)C(=O)N[C@@H](CCSC)C(=O)N[C@@H](C)C(=O)N[C@@H](Cc1ccccc1)C(=O)O [3102.1074] (H-FKINIFMAF-OH)", "IC50", 10),
    ("CC[C@H](C)[C@H](NC(=O)[C@H](CCSC)NC(=O)[C@H](C)NC(=O)[C@H](C)NC(=O)[C@@H](N)Cc1ccccc1)C(=O)N[C@H](C(=O)N[C@@H](CCCNC(=N)N)C(=O)N[C@@H](CO)C(=O)N[C@@H](Cc1ccccc1)C(=O)O)[C@@H](C)CC [3102.1048] (H-FAAMIIRSF-OH)", "IC50", 1.3),
    ("CSCC[C@H](NC(=O)[C@@H](N)CCSC)C(=O)N[C@H](C(=O)N[C@@H](CO)C(=O)N[C@H](C(=O)N[C@@H](CCC(=O)O)C(=O)N[C@@H](CC(N)=O)C(=O)N[C@@H](CC(N)=O)C(=O)N[C@@H](CC(C)C)C(=O)O)[C@@H](C)O)C(C)C [3102.1183] (H-MMVSTENNL-OH)", "IC50", 11),
    ("CSCC[C@H](NC(=O)[C@H](CO)NC(=O)[C@H](CCCNC(=N)N)NC(=O)[C@@H]1CCCN1C(=O)[C@H](Cc1ccccc1)NC(=O)[C@H](CCCCN)NC(=O)[C@H](CO)NC(=O)[C@H](CCCCN)NC(=O)[C@H](C)N)C(=O)O [3102.1076] (H-AKSKFPRSM-OH)", "IC50", 0.26),
    ("CC[C@H](C)[C@H](NC(=O)[C@@H](NC(=O)[C@H](CCC(=O)O)NC(=O)[C@H](Cc1ccccc1)NC(=O)[C@H](Cc1ccccc1)NC(=O)[C@H](CCCCN)NC(=O)[C@@H](N)CC(N)=O)C(C)C)C(=O)N[C@@H](Cc1ccccc1)C(=O)N[C@@H](Cc1ccccc1)C(=O)O [3102.1109] (H-NKFFEVIFF-OH)", "IC50", 19),
    ("CSCC[C@H](NC(=O)[C@@H](N)C(C)C)C(=O)N[C@H](C(=O)N[C@H](C(=O)N[C@@H](CO)C(=O)N[C@@H](CCCCN)C(=O)N1CCC[C@H]1C(=O)N[C@@H](CC(C)C)C(=O)N[C@@H](Cc1ccccc1)C(=O)O)[C@@H](C)O)C(C)C [3102.1148] (H-VMVTSKPLF-OH)", "IC50", 8.8),
    ("CC[C@H](C)[C@H](NC(=O)[C@@H](NC(=O)CNC(=O)[C@H](CCC(=O)O)NC(=O)[C@@H]1CCCN1C(=O)[C@H](CCC(N)=O)NC(=O)[C@@H](N)CCCCN)C(C)C)C(=O)N[C@@H](CC(C)C)C(=O)N[C@@H](Cc1ccccc1)C(=O)O [3102.1100] (H-KQPEGVILF-OH)", "IC50", 3.7),
    ("CC(C)C[C@H](NC(=O)[C@H](CC(C)C)NC(=O)[C@@H](NC(=O)[C@H](CO)NC(=O)[C@H](Cc1ccc(O)cc1)NC(=O)[C@H](CC(C)C)NC(=O)[C@@H](N)CCC(N)=O)[C@@H](C)O)C(=O)N[C@@H](CO)C(=O)N[C@@H](Cc1ccccc1)C(=O)O [3102.1175] (H-QLYSTLLSF-OH)", "IC50", 0.57),
    ("CC(C)[C@H](NC(=O)[C@H](Cc1c[nH]cn1)NC(=O)[C@H](CCC(N)=O)NC(=O)CNC(=O)[C@H](Cc1ccccc1)NC(=O)[C@H](CS)NC(=O)[C@H](CC(N)=O)NC(=O)[C@H](C)NC(=O)[C@H](C)N)C(=O)O [3102.1133] (H-AANCFGQHV-OH)", "IC50", 22),
    ("CC(C)C[C@H](NC(=O)[C@H](CO)NC(=O)[C@@H](NC(=O)[C@H](CCCNC(=N)N)NC(=O)[C@H](CO)NC(=O)[C@H](CC(C)C)NC(=O)[C@H](Cc1ccc(O)cc1)NC(=O)[C@H](CCC(N)=O)NC(=O)[C@@H](N)CO)C(C)C)C(=O)O [3102.1130] (H-SQYLSRVSL-OH)", "IC50", 0.24),
]
